Target: β-galactosidase (A. oryzae) (Aspergillus oryzae)
Assay: Assay for the inhibited enzymatic substrate hydrolysis
Assay type: biochemical
Settings: substrate 2c; 50 mM acetate buffer pH 5.0, 30 °C
pKi: −log10 of the molar value.
# maps each entry to its pKi

molecule	pKi
OCC1NC(=NCc2cccc(F)c2)C(O)C(O)C1O [1f, 3-fluorobenzyl-D-galactonoamidine]	7.74
Cc1ccc(CN=C2N[C@H](CO)[C@H](O)[C@H](O)[C@H]2O)cc1 [1d, p-methylbenzyl-D-galactonoamidine]	7.88

----------
Tested on: β-galactosidase (A. oryzae)
Test: Assay for enzymatic substrate hydrolysis
Format: biochemical, Aspergillus oryzae
Settings: 50 mM acetate buffer pH 5.0, 30 °C, no inhibitor
# maps each entry to its Km
metric name: Km

compound	target or test system	metric name	endpoint result
O=[N+]([O-])c1ccc(O[C@@H]2O[C@H](CO)[C@H](O)[C@H](O)[C@H]2O)c(F)c1 [2i]	β-galactosidase (A. oryzae)	Km	0.92 mM
O=[N+]([O-])c1cc(Br)ccc1O[C@@H]1O[C@H](CO)[C@H](O)[C@H](O)[C@H]1O [2e]	β-galactosidase (A. oryzae)	Km	1.1 mM
Cc1ccc(O[C@@H]2O[C@H](CO)[C@H](O)[C@H](O)[C@H]2O)c([N+](=O)[O-])c1 [2b]	β-galactosidase (A. oryzae)	Km	1.49 mM
O=[N+]([O-])c1cc(Cl)ccc1O[C@@H]1O[C@H](CO)[C@H](O)[C@H](O)[C@H]1O [2d]	β-galactosidase (A. oryzae)	Km	0.96 mM
O=[N+]([O-])c1ccc(O[C@@H]2O[C@H](CO)[C@H](O)[C@H](O)[C@H]2O)cc1 [2h, 4-nitrophenyl-β-D-galactopyranoside, reference compound]	β-galactosidase (A. oryzae)	Km	0.84 mM
Cc1ccc([N+](=O)[O-])c(O[C@@H]2O[C@H](CO)[C@H](O)[C@H](O)[C@H]2O)c1 [2g]	β-galactosidase (A. oryzae)	Km	4.27 mM
O=[N+]([O-])c1ccccc1O[C@@H]1O[C@H](CO)[C@H](O)[C@H](O)[C@H]1O [2a, 2-nitrophenyl-β-D-galactopyranoside, reference compound]	β-galactosidase (A. oryzae)	Km	1.27 mM
O=[N+]([O-])c1ccc(O[C@@H]2O[C@H](CO)[C@H](O)[C@H](O)[C@H]2O)c(Cl)c1 [2k]	β-galactosidase (A. oryzae)	Km	0.7 mM
O=[N+]([O-])c1ccc(F)cc1O[C@@H]1O[C@H](CO)[C@H](O)[C@H](O)[C@H]1O [2f]	β-galactosidase (A. oryzae)	Km	1.78 mM
O=[N+]([O-])c1cc(F)ccc1O[C@@H]1O[C@H](CO)[C@H](O)[C@H](O)[C@H]1O [2c]	β-galactosidase (A. oryzae)	Km	1.24 mM

----------
Molecular target: β-galactosidase (A. oryzae) (Aspergillus oryzae, UniProt Q2UCU3)
Sequence (Q2UCU3 19-1005): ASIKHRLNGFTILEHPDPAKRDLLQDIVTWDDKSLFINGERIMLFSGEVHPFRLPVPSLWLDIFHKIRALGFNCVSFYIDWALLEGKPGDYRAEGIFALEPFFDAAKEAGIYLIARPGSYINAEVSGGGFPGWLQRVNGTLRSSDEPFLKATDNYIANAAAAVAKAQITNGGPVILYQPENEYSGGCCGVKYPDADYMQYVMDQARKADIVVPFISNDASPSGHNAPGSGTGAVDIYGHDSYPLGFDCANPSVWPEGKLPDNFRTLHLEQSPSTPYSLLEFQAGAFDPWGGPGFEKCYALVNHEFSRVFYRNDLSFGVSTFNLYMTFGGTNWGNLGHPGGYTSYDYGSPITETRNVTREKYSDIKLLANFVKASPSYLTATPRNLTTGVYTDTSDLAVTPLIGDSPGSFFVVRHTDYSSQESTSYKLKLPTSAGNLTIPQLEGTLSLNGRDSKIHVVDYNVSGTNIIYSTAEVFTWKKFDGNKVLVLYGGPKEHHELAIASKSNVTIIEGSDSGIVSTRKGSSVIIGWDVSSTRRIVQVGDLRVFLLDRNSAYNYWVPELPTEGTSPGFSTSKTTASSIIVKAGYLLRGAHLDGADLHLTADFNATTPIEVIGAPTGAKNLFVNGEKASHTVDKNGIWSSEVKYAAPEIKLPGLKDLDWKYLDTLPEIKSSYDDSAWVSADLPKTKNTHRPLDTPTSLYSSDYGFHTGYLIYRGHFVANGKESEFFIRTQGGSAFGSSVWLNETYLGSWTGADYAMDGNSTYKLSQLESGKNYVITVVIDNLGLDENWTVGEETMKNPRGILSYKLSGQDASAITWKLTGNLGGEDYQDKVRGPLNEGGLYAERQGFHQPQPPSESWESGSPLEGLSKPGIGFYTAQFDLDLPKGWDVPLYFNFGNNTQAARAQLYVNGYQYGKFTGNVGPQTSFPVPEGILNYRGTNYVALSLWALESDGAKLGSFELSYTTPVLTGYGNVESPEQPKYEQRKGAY
Experiment: Assay for the inhibited enzymatic substrate hydrolysis
Format: biochemical
Details: substrate 2i; 50 mM acetate buffer pH 5.0, 30 °C
pKi: −log10 of the molar value.
# maps each entry to its pKi
metric name: pKi

compound	endpoint result
Cc1ccc(CN=C2N[C@H](CO)[C@H](O)[C@H](O)[C@H]2O)cc1	7.94
OCC1NC(=NCc2cccc(F)c2)C(O)C(O)C1O (centres unmarked)	7.86

----------
# maps each entry to its Ki
Biological target: UniProtKB Q2UCU3
Experiment: Assay for the inhibited enzymatic substrate hydrolysis
Format: biochemical
Conditions: substrate 2f; 50 mM acetate buffer pH 5.0, 30 °C
metric name: Ki (nM)

compound	metric name	unit text	endpoint result
Cc1ccc(CN=C2N[C@H](CO)[C@H](O)[C@H](O)[C@H]2O)cc1	Ki	nM	24.6
OCC1NC(=NCc2cccc(F)c2)C(O)C(O)C1O (centres unmarked)	Ki	nM	30.3

----------
# maps each entry to its kcat
System: β-galactosidase (A. oryzae)
Assay: Assay for enzymatic substrate hydrolysis
Format: biochemical, Aspergillus oryzae
Conditions: 50 mM acetate buffer pH 5.0, 30 °C, no inhibitor

compound	unit text	kcat
Cc1ccc(O[C@@H]2O[C@H](CO)[C@H](O)[C@H](O)[C@H]2O)c([N+](=O)[O-])c1	s⁻¹	80.13
O=[N+]([O-])c1cc(Cl)ccc1O[C@@H]1O[C@H](CO)[C@H](O)[C@H](O)[C@H]1O	s⁻¹	68.97
O=[N+]([O-])c1ccccc1O[C@@H]1O[C@H](CO)[C@H](O)[C@H](O)[C@H]1O [2a, 2-nitrophenyl-β-D-galactopyranoside, reference compound]	s⁻¹	76.5
O=[N+]([O-])c1cc(Br)ccc1O[C@@H]1O[C@H](CO)[C@H](O)[C@H](O)[C@H]1O	s⁻¹	64.7
O=[N+]([O-])c1ccc(F)cc1O[C@@H]1O[C@H](CO)[C@H](O)[C@H](O)[C@H]1O	s⁻¹	64.77
O=[N+]([O-])c1ccc(O[C@@H]2O[C@H](CO)[C@H](O)[C@H](O)[C@H]2O)c(F)c1	s⁻¹	61.17
O=[N+]([O-])c1ccc(O[C@@H]2O[C@H](CO)[C@H](O)[C@H](O)[C@H]2O)cc1 [2h, 4-nitrophenyl-β-D-galactopyranoside, reference compound]	s⁻¹	53.97

----------
Target: β-galactosidase (A. oryzae) (Aspergillus oryzae, UniProt Q2UCU3)
Test: Assay for the inhibited enzymatic substrate hydrolysis
Format: biochemical
Details: substrate 2d; 50 mM acetate buffer pH 5.0, 30 °C
pKi: −log10 of the molar value.
metric name: pKi

molecule	metric name	endpoint result
OCC1NC(=NCc2cccc(F)c2)C(O)C(O)C1O [1f, 3-fluorobenzyl-D-galactonoamidine]	pKi	7.88
Cc1ccc(CN=C2N[C@H](CO)[C@H](O)[C@H](O)[C@H]2O)cc1 [1d, p-methylbenzyl-D-galactonoamidine]	pKi	7.94

----------
Target: β-galactosidase (A. oryzae) (Aspergillus oryzae)
Experiment: Assay for the inhibited enzymatic substrate hydrolysis
Type: biochemical
Settings: substrate 2b; 50 mM acetate buffer pH 5.0, 30 °C
pKi: −log10 of the molar value.

molecule	pKi
OCC1NC(=NCc2cccc(F)c2)C(O)C(O)C1O (centres unmarked)	7.65
Cc1ccc(CN=C2N[C@H](CO)[C@H](O)[C@H](O)[C@H]2O)cc1	7.85

----------
Molecular target: β-galactosidase (A. oryzae) (Aspergillus oryzae, UniProt Q2UCU3)
Assay: Assay for the inhibited enzymatic substrate hydrolysis
Assay type: biochemical
Details: substrate 2a; 50 mM acetate buffer pH 5.0, 30 °C
metric name: Ki (nM)

compound	metric name	unit text	endpoint result
Cc1ccc(CN=C2N[C@H](CO)[C@H](O)[C@H](O)[C@H]2O)cc1	Ki	nM	23.3
OCC1NC(=NCc2cccc(F)c2)C(O)C(O)C1O (centres unmarked)	Ki	nM	16.4

----------
Biological target: β-galactosidase (A. oryzae) (Aspergillus oryzae, UniProt Q2UCU3)
Test: Assay for the inhibited enzymatic substrate hydrolysis
Format: biochemical
Conditions: substrate 2g; 50 mM acetate buffer pH 5.0, 30 °C
# maps each entry to its Ki
metric name: Ki

compound	target or test system	endpoint result
OCC1NC(=NCc2cccc(F)c2)C(O)C(O)C1O (centres unmarked)	β-galactosidase (A. oryzae) (Aspergillus oryzae, UniProt Q2UCU3)	58.1 nM
Cc1ccc(CN=C2N[C@H](CO)[C@H](O)[C@H](O)[C@H]2O)cc1	β-galactosidase (A. oryzae) (Aspergillus oryzae, UniProt Q2UCU3)	55.7 nM

----------
Tested on: β-galactosidase (A. oryzae)
Assay: Assay for enzymatic substrate hydrolysis
Assay type: biochemical, Aspergillus oryzae
Settings: 50 mM acetate buffer pH 5.0, 30 °C, no inhibitor
metric name: kcat (s⁻¹)

smiles input	metric name	unit text	endpoint result
O=[N+]([O-])c1cc(F)ccc1O[C@@H]1O[C@H](CO)[C@H](O)[C@H](O)[C@H]1O	kcat	s⁻¹	77.63
Cc1ccc([N+](=O)[O-])c(O[C@@H]2O[C@H](CO)[C@H](O)[C@H](O)[C@H]2O)c1	kcat	s⁻¹	70.15
O=[N+]([O-])c1ccc(O[C@@H]2O[C@H](CO)[C@H](O)[C@H](O)[C@H]2O)c(Cl)c1	kcat	s⁻¹	39.68

----------
Target: β-galactosidase (A. oryzae) (Aspergillus oryzae, UniProt Q2UCU3)
Test: Assay for the inhibited enzymatic substrate hydrolysis
Format: biochemical
Conditions: substrate 2e; 50 mM acetate buffer pH 5.0, 30 °C
pKi: −log10 of the molar value.
# maps each entry to its pKi
metric name: pKi

molecule	endpoint result
Cc1ccc(CN=C2N[C@H](CO)[C@H](O)[C@H](O)[C@H]2O)cc1	7.78
OCC1NC(=NCc2cccc(F)c2)C(O)C(O)C1O (centres unmarked)	7.85
